B1: CPEB3 Ribozyme (parent)
chain: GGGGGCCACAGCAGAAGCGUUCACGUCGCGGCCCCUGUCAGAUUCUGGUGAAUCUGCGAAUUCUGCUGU

Variants of: B1
Assay: self-cleavage, relative activity (ratio to wild type); higher = more cleavage; co-transcriptional
OBSERVABLE: self-cleavage
Write no unit; give the number alone.

Input G3A C12U , output reported self-cleavage.
0.723

Input U46C U69G , output reported self-cleavage.
1.05

Input G19U G56C , output reported self-cleavage.
0.222

Input C35U A59G , output reported self-cleavage.
0.999

Input C22A C66U , output reported self-cleavage.
0.177

Input G14A U46C , output reported self-cleavage.
0.709

Input A13U A51C , output reported self-cleavage.
0.828

Input A15C G28C , output reported self-cleavage.
0.146

Input G17A C54G , output reported self-cleavage.
0.187

Input G5A C57G , output reported self-cleavage.
0.234

Input C22G G56U , output reported self-cleavage.
0.202

The origin of these recorded values is the RNAGym collection of RNA variant scans (doi:10.7554/elife.80360).
